assay_notes: Selectivity index, the ratio of CC50 for human HepG2.2.15 cells to EC50 for antiviral activity against HBV in human HepG2.2.15 cells assessed as inhibition of HBV DNA replication
Format: toxicity, cell-based
cond: read-out: Ratio CC50/EC50
Record form. Attribute: selectivity ratio. Fill in for each entry.

CC(C)OC(=O)OCOP(=O)(CO[C@H](C)Cn1cnc2c(N)ncnc21)OCOC(=O)OC(C)C.O=C(O)/C=C/C(=O)O [TENOFOVIR DISOPROXIL FUMARATE]    43.7
CC(C)(C)C(=O)OCOP(=O)(COCCn1cnc2c(N)ncnc21)OCOC(=O)C(C)(C)C    44.6
CC(=O)N[C@H]1[C@H](OCCCCC(=O)NCCOCCOCCOCCOCCn2cc(COP(=O)(CO[C@H](C)Cn3cnc4c(N)ncnc43)OCOC(=O)C(C)(C)C)nn2)O[C@H](CO)[C@H](O)[C@H]1O (stereo partly specified)    > 468

Hey, quick one: what's selectivity ratio for each of these?
1. CC(=O)N[C@H]1[C@H](OCCCCC(=O)NCCCNC(=O)CCOCC(COCCC(=O)NCCCNC(=O)CCCCO[C@@H]2O[C@H](CO)[C@H](O)[C@@H](O)[C@H]2NC(C)=O)(COCCC(=O)NCCCNC(=O)CCCCO[C@@H]2O[C@H](CO)[C@H](O)[C@@H](O)[C@H]2NC(C)=O)NC(=O)CCC(=O)NCCOCCOCCOCCOCCn2cc(COP(=O)(COCCn3cnc4c(N)ncnc43)OCOC(=O)C(C)(C)C)nn2)O[C@H](CO)[C@H](O)[C@H]1O (stereo partly specified)
2. CC(=O)N[C@H]1[C@H](OCCCCC(=O)NCCCNC(=O)CCOCC(COCCC(=O)NCCCNC(=O)CCCCO[C@@H]2O[C@H](CO)[C@H](O)[C@@H](O)[C@H]2NC(C)=O)(COCCC(=O)NCCCNC(=O)CCCCO[C@@H]2O[C@H](CO)[C@H](O)[C@@H](O)[C@H]2NC(C)=O)NC(=O)CCC(=O)NCCOCCOCCOCCOCCn2cc(COP(=O)(CO[C@H](C)Cn3cnc4c(N)ncnc43)OCOC(=O)OC(C)C)nn2)O[C@H](CO)[C@H](O)[C@H]1O (stereo partly specified)

Marked response:
> 1020
> 1050

Measured selectivity ratio, CC(=O)N[C@H]1[C@H](OCCCCC(=O)NCCOCCOCCOCCOCCn2cc(COP(=O)(COCCn3cnc4c(N)ncnc43)OCOC(=O)C(C)(C)C)nn2)O[C@H](CO)[C@H](O)[C@H]1O (stereo partly specified) : > 384

---

Record form. Attribute: clearance. Fill in for each entry.
assay_notes: Clearance in Sprague-Dawley rat at 5 mg/kg, iv by LC-MS analysis
Format: ADME, organism-based
cond: in vivo
Numbers only, in mL/min/kg.

CC(=O)N[C@H]1[C@H](OCCCCC(=O)NCCOCCOCCOCCOCCn2cc(COP(=O)(CO[C@H](C)Cn3cnc4c(N)ncnc43)OCOC(=O)C(C)(C)C)nn2)O[C@H](CO)[C@H](O)[C@H]1O (some centres not stated)    40.7

# context switch: different compound, same clearance
Measured clearance, CC(=O)N[C@H]1[C@H](OCCCCC(=O)NCCOCCOCCOCCOCCn2cc(COP(=O)(COCCn3cnc4c(N)ncnc43)OCOC(=O)C(C)(C)C)nn2)O[C@H](CO)[C@H](O)[C@H]1O (some centres not stated) : 42.1

These measurements were taken from ChEMBL document CHEMBL6153042.
